Molecular target: Mitogen-activated protein kinase 9 (Homo sapiens)
Sequence (P45984 whole entry): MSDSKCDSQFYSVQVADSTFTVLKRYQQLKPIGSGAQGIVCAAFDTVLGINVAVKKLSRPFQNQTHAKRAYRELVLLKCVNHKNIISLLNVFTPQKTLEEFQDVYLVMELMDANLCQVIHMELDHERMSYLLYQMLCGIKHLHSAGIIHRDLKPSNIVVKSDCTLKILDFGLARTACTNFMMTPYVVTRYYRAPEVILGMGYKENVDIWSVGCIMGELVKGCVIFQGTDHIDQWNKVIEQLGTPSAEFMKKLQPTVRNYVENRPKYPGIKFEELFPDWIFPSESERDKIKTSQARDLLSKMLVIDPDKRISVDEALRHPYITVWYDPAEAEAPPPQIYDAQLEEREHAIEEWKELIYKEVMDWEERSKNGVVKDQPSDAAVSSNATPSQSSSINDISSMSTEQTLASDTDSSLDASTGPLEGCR
Experiment: Inhibition of human JNK2 in presence of ATP
Can you tell me IC50 for the items I'm about to list?
Field format: number, assumed nM, no unit text.

Looking up CC(C)(C)n1cc(-c2ccnc(NCCCNS(=O)(=O)c3ccccc3)c2)c(-c2cccc(O)c2)n1 , I found its IC50 recorded as 23.1

Looking up CC(C)(C)n1cc(-c2ccnc(NCCCNS(=O)(=O)c3ccc(F)cc3)c2)c(-c2cccc(O)c2)n1 , I found its IC50 recorded as 19.8

Looking up COc1ccc(S(=O)(=O)NCCCNc2cc(-c3cn(C(C)(C)C)nc3-c3cccc(O)c3)ccn2)cc1 , I found its IC50 recorded as 12.7

* * *

Molecular target: Mitogen-activated protein kinase 8 (Homo sapiens, UniProt P45983)
Sequence (P45983 whole entry): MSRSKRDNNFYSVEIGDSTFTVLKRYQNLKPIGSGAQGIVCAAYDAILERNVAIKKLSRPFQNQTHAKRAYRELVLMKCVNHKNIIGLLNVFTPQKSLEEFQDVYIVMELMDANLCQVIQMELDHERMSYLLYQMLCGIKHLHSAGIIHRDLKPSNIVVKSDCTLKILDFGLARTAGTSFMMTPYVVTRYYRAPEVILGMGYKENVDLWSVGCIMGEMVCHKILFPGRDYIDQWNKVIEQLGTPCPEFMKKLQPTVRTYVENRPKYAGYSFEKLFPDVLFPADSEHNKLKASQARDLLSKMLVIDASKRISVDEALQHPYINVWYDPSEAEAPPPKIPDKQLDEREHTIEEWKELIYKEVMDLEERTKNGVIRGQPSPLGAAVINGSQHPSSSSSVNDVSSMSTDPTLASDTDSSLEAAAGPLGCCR
Test: Inhibition of human JNK1 at 10 uM in presence of ATP relative to control
Can you tell me inhibition for the items I'm about to list?
Field format: number, assumed %, no unit text.

Form field inhibition for item Cc1ccc(S(=O)(=O)NCCNc2cc(-c3cn(C(C)(C)C)nc3-c3cccc(O)c3)ccn2)cc1 on Mitogen-activated protein kinase 8 (Homo sapiens, UniProt P45983): 85.8

Form field inhibition for item COc1ccc(S(=O)(=O)NCCCNc2cc(-c3cn(C(C)(C)C)nc3-c3cccc(O)c3)ccn2)cc1 on Mitogen-activated protein kinase 8 (Homo sapiens, UniProt P45983): 99.6

Form field inhibition for item COc1ccc(S(=O)(=O)NCCNc2cc(-c3cn(C(C)(C)C)nc3-c3cccc(OC)c3)ccn2)cc1 on Mitogen-activated protein kinase 8 (Homo sapiens, UniProt P45983): 9.82

Form field inhibition for item COc1cccc(-c2nn(C(C)(C)C)cc2-c2ccnc(NCCCNS(=O)(=O)c3ccc(Br)cc3)c2)c1 on Mitogen-activated protein kinase 8 (Homo sapiens, UniProt P45983): 73.7

Form field inhibition for item CC(C)(C)n1cc(-c2ccnc(NCCNS(=O)(=O)c3cccc(F)c3)c2)c(-c2cccc(O)c2)n1 on Mitogen-activated protein kinase 8 (Homo sapiens, UniProt P45983): 86.4

Form field inhibition for item COc1cccc(-c2nn(C(C)(C)C)cc2-c2ccnc(NCCCNS(=O)(=O)c3ccccc3)c2)c1 on Mitogen-activated protein kinase 8 (Homo sapiens, UniProt P45983): 38.8

Form field inhibition for item COc1cccc(-c2nn(C(C)(C)C)cc2-c2ccnc(NCCCNS(=O)(=O)c3ccc(F)cc3)c2)c1 on Mitogen-activated protein kinase 8 (Homo sapiens, UniProt P45983): 41.4

Form field inhibition for item COc1cccc(-c2nn(C(C)(C)C)cc2-c2ccnc(NCCCNS(=O)(=O)c3ccc(C)cc3)c2)c1 on Mitogen-activated protein kinase 8 (Homo sapiens, UniProt P45983): 37.8

* * *

Molecular target: Mitogen-activated protein kinase 8 (Homo sapiens)
Experiment: Inhibition of human JNK1 in presence of ATP
Can you tell me log10(IC50) for the items I'm about to list?
Values below are the log10 of the recorded IC50, with nM as the unit.

Looking up CC(C)(C)n1cc(-c2ccnc(NCCCNS(=O)(=O)c3ccc(Br)cc3)c2)c(-c2cccc(O)c2)n1 , I found its log10(IC50) recorded as 1.99

Looking up Cc1ccc(S(=O)(=O)NCCCNc2cc(-c3cn(C(C)(C)C)nc3-c3cccc(O)c3)ccn2)cc1 , I found its log10(IC50) recorded as 1.18

Looking up COc1ccc(S(=O)(=O)NCCCNc2cc(-c3cn(C(C)(C)C)nc3-c3cccc(O)c3)ccn2)cc1 , I found its log10(IC50) recorded as 0.26

Looking up CC(C)(C)n1cc(-c2ccnc(NCCCNS(=O)(=O)c3ccc(Cl)cc3)c2)c(-c2cccc(O)c2)n1 , I found its log10(IC50) recorded as 1.64

Looking up CC(C)(C)n1cc(-c2ccnc(NCCCNS(=O)(=O)c3cccc(F)c3)c2)c(-c2cccc(O)c2)n1 , I found its log10(IC50) recorded as 0.83

Looking up CC(C)(C)n1cc(-c2ccnc(NCCCNS(=O)(=O)c3cccc4ccccc34)c2)c(-c2cccc(O)c2)n1 , I found its log10(IC50) recorded as 1.90

* * *

Test system: LOX IMVI
Assay: Growth inhibition of human LOX IMVI cells assessed as reduction in cell viability measured after 48 hrs by SRB assay
Type: functional
PROPERTY_LABEL: GI50 (nM)
Field format: number, assumed nM, no unit text.

Looking up CC(C)(C)n1cc(-c2ccnc(NCCCNS(=O)(=O)c3ccc(C(F)(F)F)cc3)c2)c(-c2cccc(O)c2)n1 , I found its GI50 recorded as 1720

Looking up CC(C)(C)n1cc(-c2ccnc(NCCCNS(=O)(=O)c3ccc(Cl)cc3)c2)c(-c2cccc(O)c2)n1 , I found its GI50 recorded as 1730

Looking up CC(C)(C)n1cc(-c2ccnc(NCCCNS(=O)(=O)c3ccc(Br)cc3)c2)c(-c2cccc(O)c2)n1 , I found its GI50 recorded as 1770

Looking up CC(C)(C)n1cc(-c2ccnc(NCCCNS(=O)(=O)c3cccc4ccccc34)c2)c(-c2cccc(O)c2)n1 , I found its GI50 recorded as 1730

* * *

Target: Voltage-gated inwardly rectifying potassium channel KCNH2 (Homo sapiens, UniProt Q12809)
Sequence (Q12809 whole entry): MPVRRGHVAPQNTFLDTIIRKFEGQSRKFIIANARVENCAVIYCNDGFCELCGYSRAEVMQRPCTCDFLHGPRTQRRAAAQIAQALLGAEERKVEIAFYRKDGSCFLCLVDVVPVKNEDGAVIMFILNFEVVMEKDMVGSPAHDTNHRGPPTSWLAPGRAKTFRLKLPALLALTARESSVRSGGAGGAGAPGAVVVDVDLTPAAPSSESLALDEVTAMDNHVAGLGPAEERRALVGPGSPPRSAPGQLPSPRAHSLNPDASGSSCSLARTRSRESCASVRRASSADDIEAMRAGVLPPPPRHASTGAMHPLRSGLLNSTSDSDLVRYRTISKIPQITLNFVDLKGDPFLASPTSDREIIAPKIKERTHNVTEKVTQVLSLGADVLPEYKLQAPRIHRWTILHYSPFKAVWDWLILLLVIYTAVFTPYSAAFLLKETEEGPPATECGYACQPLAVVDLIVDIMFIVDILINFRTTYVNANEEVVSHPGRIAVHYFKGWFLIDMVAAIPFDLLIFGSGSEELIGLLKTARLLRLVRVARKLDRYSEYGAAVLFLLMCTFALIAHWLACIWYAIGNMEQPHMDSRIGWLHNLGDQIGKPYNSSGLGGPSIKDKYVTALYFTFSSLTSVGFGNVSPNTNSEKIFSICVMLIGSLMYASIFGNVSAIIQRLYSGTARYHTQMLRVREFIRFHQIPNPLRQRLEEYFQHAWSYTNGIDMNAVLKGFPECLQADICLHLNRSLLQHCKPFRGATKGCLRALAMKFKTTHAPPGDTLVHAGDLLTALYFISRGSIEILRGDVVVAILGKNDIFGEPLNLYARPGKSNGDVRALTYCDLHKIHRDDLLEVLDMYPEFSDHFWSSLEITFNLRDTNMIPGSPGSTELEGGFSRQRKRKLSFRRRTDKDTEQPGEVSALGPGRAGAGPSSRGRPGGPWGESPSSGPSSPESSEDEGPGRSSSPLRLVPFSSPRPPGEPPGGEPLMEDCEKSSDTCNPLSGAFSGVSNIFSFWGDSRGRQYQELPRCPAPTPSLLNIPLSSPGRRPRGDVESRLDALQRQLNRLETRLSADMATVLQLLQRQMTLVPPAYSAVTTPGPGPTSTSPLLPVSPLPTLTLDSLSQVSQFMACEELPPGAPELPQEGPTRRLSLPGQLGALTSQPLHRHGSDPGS
Can you tell me IC50 for the items I'm about to list?
Field format: number, assumed nM, no unit text.

Looking up CCNC1CCNC1 (configuration not stated) , I found its IC50 recorded as 12.8

Looking up COc1ccc(S(=O)(=O)NCCCNc2cc(-c3cn(C(C)(C)C)nc3-c3cccc(O)c3)ccn2)cc1 , I found its IC50 recorded as 4820

* * *

Molecular target: Mitogen-activated protein kinase 8 (Homo sapiens, UniProt P45983)
Assay: Inhibition of human JNK1 in presence of ATP
Can you tell me IC50 for the items I'm about to list?
Field format: number, assumed nM, no unit text.

Looking up CC(C)(C)n1cc(-c2ccnc(NCCCNS(=O)(=O)c3ccccc3)c2)c(-c2cccc(O)c2)n1 , I found its IC50 recorded as 3.75

Looking up CC(C)(C)n1cc(-c2ccnc(NCCCNS(=O)(=O)c3ccc(F)cc3)c2)c(-c2cccc(O)c2)n1 , I found its IC50 recorded as 3.5

Looking up CC(C)(C)n1cc(-c2ccnc(NCCCNS(=O)(=O)c3ccc(C(F)(F)F)cc3)c2)c(-c2cccc(O)c2)n1 , I found its IC50 recorded as 142

Looking up COc1ccc(S(=O)(=O)NCCNc2cc(-c3cn(C(C)(C)C)nc3-c3cccc(O)c3)ccn2)cc1 , I found its IC50 recorded as 55.8

* * *

System: NCI-H522
Assay: Growth inhibition of human NCI-H522 cells assessed as reduction in cell viability measured after 48 hrs by SRB assay
Assay type: functional
Can you tell me GI50 for the items I'm about to list?
Field format: number, assumed nM, no unit text.

Looking up CC(C)(C)n1cc(-c2ccnc(NCCCNS(=O)(=O)c3ccc(Cl)cc3)c2)c(-c2cccc(O)c2)n1 , I found its GI50 recorded as 1920

Looking up O=C1c2ccccc2-c2n[nH]c3cccc1c23 , I found its GI50 recorded as 12200

Looking up CC(C)(C)n1cc(-c2ccnc(NCCCNS(=O)(=O)c3ccc(C(F)(F)F)cc3)c2)c(-c2cccc(O)c2)n1 , I found its GI50 recorded as 1990

Looking up CC(C)(C)n1cc(-c2ccnc(NCCCNS(=O)(=O)c3cccc4ccccc34)c2)c(-c2cccc(O)c2)n1 , I found its GI50 recorded as 1990

Looking up CC(C)(C)n1cc(-c2ccnc(NCCCNS(=O)(=O)c3ccc(Br)cc3)c2)c(-c2cccc(O)c2)n1 , I found its GI50 recorded as 2130

* * *

Can you tell me inhibition for the items I'm about to list?
Molecular target: Mitogen-activated protein kinase 8 (Homo sapiens, UniProt P45983)
Assay: Inhibition of human JNK1 at 10 uM in presence of ATP relative to control
Field format: number, assumed %, no unit text.

Form field inhibition for item COc1ccc(S(=O)(=O)NCCNc2cc(-c3cn(C(C)(C)C)nc3-c3cccc(O)c3)ccn2)cc1 on Mitogen-activated protein kinase 8 (Homo sapiens, UniProt P45983): 90.6

Form field inhibition for item COc1cccc(-c2nn(C(C)(C)C)cc2-c2ccnc(NCCNS(=O)(=O)c3ccc(Cl)cc3)c2)c1 on Mitogen-activated protein kinase 8 (Homo sapiens, UniProt P45983): 0.99

Form field inhibition for item CC(C)(C)n1cc(-c2ccnc(NCCCNS(=O)(=O)c3ccccc3)c2)c(-c2cccc(O)c2)n1 on Mitogen-activated protein kinase 8 (Homo sapiens, UniProt P45983): 99.4

Form field inhibition for item Cc1ccc(S(=O)(=O)NCCCNc2cc(-c3cn(C(C)(C)C)nc3-c3cccc(O)c3)ccn2)cc1 on Mitogen-activated protein kinase 8 (Homo sapiens, UniProt P45983): 97

Form field inhibition for item COc1cccc(-c2nn(C(C)(C)C)cc2-c2ccnc(NCCCNS(=O)(=O)c3ccc(C(F)(F)F)cc3)c2)c1 on Mitogen-activated protein kinase 8 (Homo sapiens, UniProt P45983): 13.2

Form field inhibition for item CC(C)(C)n1cc(-c2ccnc(NCCCNS(=O)(=O)c3ccc(F)cc3)c2)c(-c2cccc(O)c2)n1 on Mitogen-activated protein kinase 8 (Homo sapiens, UniProt P45983): 96.8

Form field inhibition for item COc1cccc(-c2nn(C(C)(C)C)cc2-c2ccnc(NCCNS(=O)(=O)c3ccc(Br)cc3)c2)c1 on Mitogen-activated protein kinase 8 (Homo sapiens, UniProt P45983): -6.18
